- System Name: MAb 400-2
- Procedure Details: MAb inhibition ELISA; soluble inhibitor of MAb binding to coated hG17(1-9)-“Ala”-BSA
Where no end group is shown, it is not given here. [ ]: non-standard residue; d: D form. pGlu = O=C1CC[C@@H](C(=O)O)N1
Observed Property: pIC50
FYI, pIC50 means -log10 of a concentration in mol per litre.

Per the record, EGPWLEKEEAAYGWMDF (ends and bridges not checked) [equine G17] has pIC50 of 7.07

Per the record, [pGlu]GPWLEEEEEAYGWMDFG [human glycine-extended gastrin-17 (G17-Gly)] has pIC50 of 7.11

Per the record, EGPWLEEEEEAYGWMDF (N-terminal pyroglutamic acid (pGlu); C-terminal Phe-NH2 (amide)) [human gastrin-17 (G17), mature amidated form] has pIC50 of 7.07

Values were extracted from patent US20070066809A1.
